Source: paper PMC10051811

Assay: Micafungin concentrations in cerebrospinal fluid of infants with Candida meningitis (HPLC)
Assay type: in vivo
Conditions: human, cerebrospinal fluid, iv, 8 mg/kg/day, Patient 3, dose 8 mg/kg/day iv; HPLC; read-out: CSF values after 1 h
*1 amine or outer side, *2 acyl side, *3 side chain or, on linkers, in order; H or OH if unused. Where a SMILES comes first, the peptide text is derived from it. Bridges are numbered along the chain shown (N, C = ends). [ ]: non-standard residue; d: D form. The star is where a group is joined. hTyr(3S-OH,4S-OH,3'-OSO3H) = N[C@H](C(=O)O)[C@H](O)[C@@H](O)c1ccc(O)c(OS(=O)(=O)O)c1; Orn(4R-OH,5R-OH) = O=C([C@H](C[C@@H](O)[C@@H](O)N[*:3])N[*:1])[*:2]; Pro(3S-OH,4S-Me) = C[C@H]1CN[C@H](C(=O)O)[C@H]1O; X1 = CCCCCOc1ccc(-c2cc(-c3ccc(C(=O)*)cc3)no2)cc1; Gln(3R-OH) = NC(=O)C[C@@H](O)[C@H](N)C(=O)O; Hyp = O=C(O)[C@@H]1C[C@@H](O)CN1
experimentalEndpoint: level at 1 h (ng/mL)
Report the value in ng/mL with no unit label.

Exercise: What value of level at 1 h has been recorded for this entry: CCCCCOc1ccc(-c2cc(-c3ccc(C(=O)N[C@H]4C[C@@H](O)[C@@H](O)NC(=O)[C@@H]5[C@@H](O)[C@@H](C)CN5C(=O)[C@H]([C@H](O)CC(N)=O)NC(=O)[C@H]([C@H](O)[C@@H](O)c5ccc(O)c(OS(=O)(=O)O)c5)NC(=O)[C@@H]5C[C@@H](O)CN5C(=O)[C@H]([C@@H](C)O)NC4=O)cc3)no2)cc1 [micafungin] (X1-[Orn(4R-OH,5R-OH)]T[Hyp][hTyr(3S-OH,4S-OH,3'-OSO3H)][Gln(3R-OH)][Pro(3S-OH,4S-Me)]; lactam 1-C)
Solution: 1700
